TEST TARGET: T1, human α-CGRP 1-37 (WT) (human, C-terminal amide; N-terminal biotin when captured on the SA chip; 125I-labelled in the radioligand assay)
T1 construct: also called α-human
T1 peptide: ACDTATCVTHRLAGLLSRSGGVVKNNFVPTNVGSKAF
PROCEDURE SUMMARY: Biacore, 37°C, Fab over CGRP on SA chip
Method: Biacore assay for affinity determination. […] All Biacore assays were conducted in HBS-EP running buffer (10 mM HEPES pH 7.4, 150 mM NaCl, 3 mM EDTA, 0.005% v/v polysorbate P20). CGRP surfaces were prepared by diluting the N-biotinylated CGRP to a concentration of less than 0.001 mg/mL into HBS-EP buffer and injecting it across the SA sensor chip using variable contact times. […] Samples were typically injected for 1 minute at 100 μL/min and dissociation times of at least 10 minutes were allowed. […]
RECORDED METRIC: Kd (nM)
Just the number in nM, nothing appended.

Some binders with known Kd results, for comparison:
| BINDER | RECORDED METRIC | MEASURED RESULT |
| --- | --- | --- |
| G1 variant M48 Fab (Fab, V domains shown, Fab; constant domains as m1) VH: EVQLVESGGGLVQPGGSLRLSCAASGFTFSNYWISWVRQAPGKGLEWVAEIRSKSDNLATHYAEAVKGRFTISRDNAKNSLYLQMNSLRAEDTAVYYCTVYFDYGLAIQNYWGQGTLVTVSS VL: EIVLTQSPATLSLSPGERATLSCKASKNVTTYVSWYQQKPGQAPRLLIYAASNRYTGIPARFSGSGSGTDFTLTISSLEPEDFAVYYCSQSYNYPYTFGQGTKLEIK | Kd | 5.26 |
| G1 variant M61 Fab (Fab, V domains shown, Fab; constant domains as m1) VH: EVQLVESGGGLVQPGGSLRLSCAASGFTFSNYWISWVRQAPGKGLEWVAEIRSQSDNSATFYAEAVKGRFTISRDNAKNSLYLQMNSLRAEDTAVYYCTVYFDYGLAIQNYWGQGTLVTVSS VL: EIVLTQSPATLSLSPGERATLSCKASKNVGTYVSWYQQKPGQAPRLLIYGHSNRYLGIPARFSGSGSGTDFTLTISSLEPEDFAVYYCSQSYNYPYTFGQGTKLEIK | Kd | 2.87 |

Continue with the next binder.
Input: Which Kd value belongs to G1 variant M83 Fab (Fab, V domains shown, Fab; constant domains as m1) VH: EVQLVESGGGLVQPGGSLRLSCAASGFTFSNYWISWVRQAPGKGLEWVAEIRSKSDNMATFYAEAVKGRFTISRDNAKNSLYLQMNSLRAEDTAVYYCTVYFDYGLAIQNYWGQGTLVTVSS VL: EIVLTQSPATLSLSPGERATLSCKASKNVVTYVSWYQQKPGQAPRLLIYGHSNRYTGIPARFSGSGSGTDFTLTISSLEPEDFAVYYCSQSYNYPYTFGQGTKLEIK ?
Output: 5.83
